Recorded normalized RNA/DNA level without ligand (log10) values for a group of variants are listed next.
B1: library; a variant is named by its letters at N, in order (parent)
chain: GCUGUCACCGGUGUAUUACCCUAGUGGUCGACCGGUCUGAUGAGUCUNNNNNNAGACGAAACAGC

Variants of: B1
Assay: normalized RNA/DNA level without ligand (relative to sTRSVctl = 100) (log10 (% of sTRSVctl)); ligand: hypoxanthine (xanthine aptamer); higher = less ribozyme self-cleavage, higher mRNA level
Conditions: HEK293T, reporter: mCherry (pCS4076), ligand present: no
Returns: the value as a bare number; no unit string appended.

INSERT INTO results (changes, measured_value) VALUES
  ('CCGAAG', 1.2),
  ('UUCCAG', 1.68);

Answer with reported normalized RNA/DNA level without ligand (log10) of `GCCUUG`
1.46

Answer with reported normalized RNA/DNA level without ligand (log10) of `CGCUUU`
1.86

Answer with reported normalized RNA/DNA level without ligand (log10) of `UAUGAC`
1.81

Answer with reported normalized RNA/DNA level without ligand (log10) of `CAAUGA`
1.82

Answer with reported normalized RNA/DNA level without ligand (log10) of `CCUACG`
1.9

Answer with reported normalized RNA/DNA level without ligand (log10) of `CUCAUG`
1.91

Answer with reported normalized RNA/DNA level without ligand (log10) of `ACCCUC`
1.9

Answer with reported normalized RNA/DNA level without ligand (log10) of `AGCCGG`
1.67

Answer with reported normalized RNA/DNA level without ligand (log10) of `AAAGUC`
1.92

The measurements presented in this section are drawn from the supplement of paper PMC6757056.
